Tested on: MCF7
Test: Antiproliferative activity against human MCF7 cells assessed as inhibition of cell proliferation incubated for 72 hrs by SRB assay
Type: functional, cell-based
Conditions: MCF7, 72 h
pIC50: −log10 of the molar value.
ASSAY ENDPOINT: pIC50

Below, 2 molecules whose answers are already recorded.
{"columns": ["MOLECULE", "pIC50"],
 "data": [
  ["COc1ccc2c(c1OC)C(=O)O[C@@H]2[C@H]1c2c(cc3c(c2OC)OCO3)CCN1C [NOSCAPINE]", 4.40],
  ["COc1cc(NC(=O)Nc2c3c(c(OC)c4c2OCO4)[C@H]([C@H]2OC(=O)c4c2ccc(OC)c4OC)N(C)CC3)cc(OC)c1OC", 4.44]
]}

[1] COc1ccc(NC(=O)Nc2c3c(c(OC)c4c2OCO4)[C@H]([C@H]2OC(=O)c4c2ccc(OC)c4OC)N(C)CC3)c(OC)c1
[2] CCc1ccc(NC(=O)Nc2c3c(c(OC)c4c2OCO4)[C@H]([C@H]2OC(=O)c4c2ccc(OC)c4OC)N(C)CC3)cc1
Data request: Just tell me: smaller pIC50 value, 1 or 2 ? Select an item and report its label.
Data returned: 2
(2: 4.42, 1: 4.76)

----------
Test system: MCF7
Assay: Antiproliferative activity against human MCF7 cells assessed as inhibition of cell proliferation incubated for 72 hrs by SRB assay
Assay type: functional, cell-based
Details: MCF7, 72 h
ASSAY ENDPOINT: IC50 (µM)

Below, 3 compounds whose answers are already recorded.
{"columns": ["SMILES INPUT", "UNIT OF MEASURE", "IC50"],
 "data": [
  ["COc1ccc2c(c1OC)C(=O)O[C@@H]2[C@H]1c2c(c(NC(=O)Nc3cccc(C(C)=O)c3)c3c(c2OC)OCO3)CCN1C", "µM", 29.5],
  ["COc1ccc2c(c1OC)C(=O)O[C@@H]2[C@H]1c2c(c(NC(=O)Nc3c(Cl)cc(Cl)cc3Cl)c3c(c2OC)OCO3)CCN1C", "µM", 27.7],
  ["COc1ccc2c(c1OC)C(=O)O[C@@H]2[C@H]1c2c(c(NC(=O)Nc3ccc(F)c(Cl)c3)c3c(c2OC)OCO3)CCN1C", "µM", 32.7]
]}

[A] COc1ccc2c(c1OC)C(=O)O[C@@H]2[C@H]1c2c(c(NC(=O)Nc3ccc(Cl)cc3Cl)c3c(c2OC)OCO3)CCN1C
[B] COc1ccc2c(c1OC)C(=O)O[C@@H]2[C@H]1c2c(c(NC(=O)Nc3cccc(F)c3)c3c(c2OC)OCO3)CCN1C
Data request: Just tell me: smaller IC50 value, A or B ? Select an item and report its label.
Data returned: A
(A: 4.77 µM, B: 37.9 µM)

----------
Examples of compounds with documented IC50 at 72 h follow.
Assay: Cytotoxicty against HEK cells incubated for 72 hrs by SRB assay
Format: toxicity, cell-based
Details: human
I only need the number, in µM, no unit after it.

Below, 8 compounds whose answers are already recorded.
{"columns": ["SMILES INPUT", "UNIT OF MEASURE", "IC50 at 72 h"],
 "data": [
  ["COc1ccc2c(c1OC)C(=O)O[C@@H]2[C@H]1c2c(c(NC(=O)Nc3ccc(F)c(Cl)c3)c3c(c2OC)OCO3)CCN1C", "µM", 285],
  ["COc1ccc2c(c1OC)C(=O)O[C@@H]2[C@H]1c2c(c(NC(=O)Nc3cccc(C(C)=O)c3)c3c(c2OC)OCO3)CCN1C", "µM", 306],
  ["COc1ccc(NC(=O)Nc2c3c(c(OC)c4c2OCO4)[C@H]([C@H]2OC(=O)c4c2ccc(OC)c4OC)N(C)CC3)c(OC)c1", "µM", 306],
  ["COc1cc(NC(=O)Nc2c3c(c(OC)c4c2OCO4)[C@H]([C@H]2OC(=O)c4c2ccc(OC)c4OC)N(C)CC3)cc(OC)c1OC", "µM", 294],
  ["COc1ccc2c(c1OC)C(=O)O[C@@H]2[C@H]1c2c(cc3c(c2OC)OCO3)CCN1C", "µM", 229],
  ["COc1ccc2c(c1OC)C(=O)O[C@@H]2[C@H]1c2c(c(NC(=O)Nc3cccc(F)c3)c3c(c2OC)OCO3)CCN1C", "µM", 292],
  ["COc1ccc2c(c1OC)C(=O)O[C@@H]2[C@H]1c2c(c(NC(=O)Nc3ccc(Cl)cc3Cl)c3c(c2OC)OCO3)CCN1C", "µM", 338],
  ["CCc1ccc(NC(=O)Nc2c3c(c(OC)c4c2OCO4)[C@H]([C@H]2OC(=O)c4c2ccc(OC)c4OC)N(C)CC3)cc1", "µM", 290]
]}

Lab note: next compound to report on.
Data request: Any idea what IC50 at 72 h was measured for COc1ccc2c(c1OC)C(=O)O[C@@H]2[C@H]1c2c(c(NC(=O)Nc3c(Cl)cc(Cl)cc3Cl)c3c(c2OC)OCO3)CCN1C ?
Data returned: 293
